Below, each of the compounds is paired with its reported IC50 value.
Tested on: Vero
Assay: Cytotoxicity against African green monkey Vero cells after 72 hrs by MTS assay
Assay type: cell-based
Settings: Chlorocebus sabaeus
Report only the number, with the unit µM understood.

Before answering, review these 3 worked examples.
[[record]]
compound = "CC[C@H]1OC(=O)[C@@H](C)[C@H](O[C@H]2C[C@@](C)(OC)[C@](O)(CN(C)C)[C@H](C)O2)[C@H](C)[C@H](O[C@H]2O[C@@H](C)C[C@@H](N(C)Cc3ccc(-c4cn(CCCCCCC(=O)NO)nn4)cc3)[C@@H]2O)[C@@](C)(O)C[C@H](C)CN(C)[C@@H](C)[C@H](O)[C@@]1(C)O"
reading = 5.73

[[record]]
compound = "CC[C@H]1OC(=O)[C@@H](C)[C@H](O[C@H]2C[C@@](C)(OC)[C@@H](O)[C@H](C)O2)[C@H](C)[C@H](O[C@H]2O[C@@H](C)C[C@@H](N(C)Cc3ccc(-c4cn(CCCCCCC(=O)NO)nn4)cc3)[C@@H]2O)[C@@](C)(O)C[C@H](C)CN(C)[C@@H](C)[C@H](O)[C@@]1(C)O (stereo in doubt)"
reading = 5.9

[[record]]
compound = "CC[C@@H]1OC(=O)[C@@H](C)[C@H](O[C@@H]2C[C@](C)(OC)[C@@](O)(CN(C)C)[C@@H](C)O2)[C@H](C)[C@H](O[C@@H]2O[C@H](C)C[C@H](N(C)Cc3ccc(-c4cn(CCCCCCC(=O)NO)nn4)cc3)[C@H]2O)[C@@](C)(OC)C[C@H](C)C(=O)[C@@H](C)[C@@H](O)[C@@]1(C)O"
reading = 2.08


Now look at this entry.
# get_value(readout= IC50, system= Vero) for CC[C@@H]1OC(=O)[C@@H](C)[C@H](O[C@H]2C[C@@](C)(OC)[C@@H](O)[C@H](C)O2)[C@H](C)[C@H](O[C@@H]2O[C@H](C)C[C@H](N(C)Cc3ccc(-c4cn(CCCCCCC(=O)NO)nn4)cc3)[C@H]2O)[C@@](C)(OC)C[C@H](C)C(=O)[C@@H](C)[C@@H](O)[C@@]1(C)O (stereo in doubt)
4.9

###

Biological target: Histone deacetylase 1 (Homo sapiens)
Experiment: Inhibition of recombinant HDAC1 (unknown origin) expressed in Escherichia coli BL21(DE3) after 60 mins using trichostatin A by label-free mass spectrometry-based SAMDI assay
Below, each of the molecules is paired with its reported IC50 value.

Any idea what IC50 was measured for `CC[C@@H]1OC(=O)[C@H](C)[C@@H](O[C@@H]2C[C@](C)(OC)[C@H](O)[C@@H](C)O2)[C@@H](C)[C@@H](O[C@@H]2O[C@H](C)C[C@H](N(C)Cc3ccccc3-c3cn(CCCCCCC(=O)NO)nn3)[C@H]2O)[C@](C)(O)C[C@@H](C)CN(C)[C@H](C)[C@@H](O)[C@]1(C)O` ?
0.923 µM

Any idea what IC50 was measured for `CC[C@@H]1OC(=O)[C@H](C)[C@@H](O[C@H]2C[C@@](C)(OC)[C@](O)(CN(C)Cc3ccc(-c4cn(CCC(=O)NO)nn4)cc3)[C@H](C)O2)[C@@H](C)[C@@H](O[C@@H]2O[C@H](C)C[C@H](N(C)C)[C@H]2O)[C@](C)(O)C[C@@H](C)CN(C)[C@H](C)[C@@H](O)[C@]1(C)O` ?
> 10 µM

Any idea what IC50 was measured for `CC[C@H]1OC(=O)[C@H](C)[C@@H](O[C@@H]2C[C@](C)(OC)[C@H](O)[C@@H](C)O2)[C@@H](C)[C@@H](O[C@H]2O[C@@H](C)C[C@@H](N(C)Cc3ccc(-c4cn(CCCC(=O)NO)nn4)cc3)[C@@H]2O)[C@](C)(OC)C[C@@H](C)C(=O)[C@H](C)[C@H](O)[C@]1(C)O` ?
9.91 µM

Any idea what IC50 was measured for `CC[C@@H]1OC(=O)[C@@H](C)[C@H](O[C@H]2C[C@@](C)(OC)[C@](O)(CN(C)Cc3ccc(-c4cn(CCCCCCC(=O)NO)nn4)cc3)[C@H](C)O2)[C@H](C)[C@H](O[C@@H]2O[C@H](C)C[C@H](N(C)C)[C@H]2O)[C@@](C)(OC)C[C@H](C)C(=O)[C@@H](C)[C@@H](O)[C@@]1(C)O` ?
0.0239 µM

Any idea what IC50 was measured for `CC[C@@H]1OC(=O)[C@H](C)[C@@H](O[C@@H]2C[C@](C)(OC)[C@H](O)[C@@H](C)O2)[C@@H](C)[C@@H](O[C@@H]2O[C@H](C)C[C@H](N(C)Cc3cccc(-c4cn(CCCCCCC(=O)NO)nn4)c3)[C@H]2O)[C@](C)(O)C[C@@H](C)CN(C)[C@H](C)[C@@H](O)[C@]1(C)O` ?
0.101 µM

Any idea what IC50 was measured for `CC[C@@H]1OC(=O)[C@@H](C)[C@H](O[C@H]2C[C@@](C)(OC)[C@@H](O)[C@H](C)O2)[C@H](C)[C@H](O[C@@H]2O[C@H](C)C[C@H](N(C)Cc3ccc(-c4cn(CCC(=O)NO)nn4)cc3)[C@H]2O)[C@@](C)(OC)C[C@H](C)C(=O)[C@@H](C)[C@@H](O)[C@@]1(C)O` ?
> 10 µM

Any idea what IC50 was measured for `CC[C@@H]1OC(=O)[C@H](C)[C@@H](O[C@@H]2C[C@](C)(OC)[C@H](O)[C@@H](C)O2)[C@@H](C)[C@@H](O[C@@H]2O[C@H](C)C[C@H](N(C)Cc3ccccc3-c3cn(CCCCCC(=O)NO)nn3)[C@H]2O)[C@](C)(O)C[C@@H](C)CN(C)[C@H](C)[C@@H](O)[C@]1(C)O` ?
0.613 µM

###

Target: Histone deacetylase 1 (Homo sapiens)
Assay: Inhibition of recombinant HDAC1 (unknown origin) expressed in Escherichia coli BL21(DE3) after 60 mins using trichostatin A by label-free mass spectrometry-based SAMDI assay
assay-endpoint: IC50

Before answering, review these 3 worked examples.
[[record]]
molecule = "CC[C@H]1OC(=O)[C@@H](C)[C@H](O[C@H]2C[C@@](C)(OC)[C@](O)(CN(C)Cc3ccc(-c4cn(CCCCCCC(=O)NO)nn4)cc3)[C@H](C)O2)[C@H](C)[C@H](O[C@H]2O[C@@H](C)C[C@@H](N(C)C)[C@@H]2O)[C@@](C)(O)C[C@H](C)CN(C)[C@@H](C)[C@H](O)[C@@]1(C)O"
assay_endpoint = "IC50"
reading = "50.4 nM"

[[record]]
molecule = "CC[C@@H]1OC(=O)[C@@H](C)[C@H](O[C@@H]2C[C@](C)(OC)[C@@](O)(CN(C)C)[C@@H](C)O2)[C@H](C)[C@H](O[C@@H]2O[C@H](C)C[C@H](N(C)Cc3ccc(-c4cn(CCCCCCC(=O)NO)nn4)cc3)[C@H]2O)[C@@](C)(OC)C[C@H](C)C(=O)[C@@H](C)[C@@H](O)[C@@]1(C)O"
assay_endpoint = "IC50"
reading = "33.3 nM"

[[record]]
molecule = "CC[C@H]1OC(=O)[C@H](C)[C@@H](O[C@@H]2C[C@](C)(OC)[C@H](O)[C@@H](C)O2)[C@H](C)[C@@H](O[C@@H]2O[C@H](C)C[C@H](N(C)C)[C@H]2O)[C@@](C)(O)C[C@@H](C)CN(Cc2ccc(-c3cn(CCCC(=O)NO)nn3)cc2)[C@@H](C)[C@@H](O)[C@]1(C)O"
assay_endpoint = "IC50"
reading = "> 10000 nM"


Now look at this entry.
Any idea what IC50 was measured for `CC[C@H]1OC(=O)[C@H](C)[C@@H](O[C@@H]2C[C@](C)(OC)[C@@](O)(CN(C)Cc3ccc(-c4cn(CCCC(=O)NO)nn4)cc3)[C@@H](C)O2)[C@@H](C)[C@@H](O[C@H]2O[C@@H](C)C[C@@H](N(C)C)[C@@H]2O)[C@](C)(OC)C[C@@H](C)C(=O)[C@H](C)[C@H](O)[C@]1(C)O` ?
> 10000 nM

###

Below, each of the compounds is paired with its reported IC50 value.
Molecular target: Histone deacetylase 1 (Homo sapiens, UniProt Q13547)
Sequence (Q13547 whole entry): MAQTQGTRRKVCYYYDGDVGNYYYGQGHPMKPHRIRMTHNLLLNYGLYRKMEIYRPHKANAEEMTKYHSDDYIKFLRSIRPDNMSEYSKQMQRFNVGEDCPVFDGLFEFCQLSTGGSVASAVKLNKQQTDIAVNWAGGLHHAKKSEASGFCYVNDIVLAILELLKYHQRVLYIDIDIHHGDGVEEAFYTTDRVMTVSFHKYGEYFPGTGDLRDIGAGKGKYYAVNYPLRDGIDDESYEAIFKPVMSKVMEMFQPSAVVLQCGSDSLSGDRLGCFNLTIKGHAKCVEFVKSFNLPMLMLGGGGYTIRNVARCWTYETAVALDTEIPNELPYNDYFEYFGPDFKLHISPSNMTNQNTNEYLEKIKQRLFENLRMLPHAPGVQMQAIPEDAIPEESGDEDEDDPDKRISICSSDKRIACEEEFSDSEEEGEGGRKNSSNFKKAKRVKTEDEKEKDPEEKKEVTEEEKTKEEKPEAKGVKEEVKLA
Assay: Inhibition of recombinant HDAC1 (unknown origin) expressed in Escherichia coli BL21(DE3) after 60 mins using trichostatin A by label-free mass spectrometry-based SAMDI assay
Report only the number, with the unit nM understood.

Before answering, review these 3 worked examples.
[[record]]
compound = "CC[C@H]1OC(=O)[C@H](C)[C@@H](O[C@@H]2C[C@](C)(OC)[C@H](O)[C@@H](C)O2)[C@@H](C)[C@@H](O[C@H]2O[C@@H](C)C[C@@H](N(C)Cc3ccc(-c4cn(CCCCCC(=O)NO)nn4)cc3)[C@@H]2O)[C@](C)(OC)C[C@@H](C)C(=O)[C@H](C)[C@H](O)[C@]1(C)O (stereo in doubt)"
assay_endpoint = "IC50"
reading = 533

[[record]]
compound = "CC[C@H]1OC(=O)[C@@H](C)[C@H](O[C@H]2C[C@@](C)(OC)[C@](O)(CN(C)C)[C@H](C)O2)[C@H](C)[C@H](O[C@H]2O[C@@H](C)C[C@@H](N(C)Cc3ccc(-c4cn(CCCCCCC(=O)NO)nn4)cc3)[C@@H]2O)[C@@](C)(O)C[C@H](C)CN(C)[C@@H](C)[C@H](O)[C@@]1(C)O"
assay_endpoint = "IC50"
reading = 79.5

[[record]]
compound = "CC[C@H]1OC(=O)[C@H](C)[C@@H](O[C@@H]2C[C@](C)(OC)[C@@](O)(CN(C)Cc3ccc(-c4cn(CCCCCC(=O)NO)nn4)cc3)[C@@H](C)O2)[C@@H](C)[C@@H](O[C@H]2O[C@@H](C)C[C@@H](N(C)C)[C@@H]2O)[C@](C)(OC)C[C@@H](C)C(=O)[C@H](C)[C@H](O)[C@]1(C)O"
assay_endpoint = "IC50"
reading = 652


Any idea what IC50 was measured for `CC[C@@H]1OC(=O)[C@@H](C)[C@H](O[C@H]2C[C@@](C)(OC)[C@@H](O)[C@H](C)O2)[C@H](C)[C@H](O[C@@H]2O[C@H](C)C[C@H](N(C)Cc3ccc(-c4cn(CCCCC(=O)NO)nn4)cc3)[C@H]2O)[C@@](C)(OC)C[C@H](C)C(=O)[C@@H](C)[C@@H](O)[C@@]1(C)O` ?
4870

Any idea what IC50 was measured for `CC[C@@H]1OC(=O)[C@@H](C)[C@H](O[C@H]2C[C@@](C)(OC)[C@@H](O)[C@H](C)O2)[C@@H](C)[C@H](O[C@H]2O[C@@H](C)C[C@@H](N(C)C)[C@@H]2O)[C@](C)(O)C[C@H](C)CN(Cc2ccc(-c3cn(CCCCCCC(=O)NO)nn3)cc2)[C@H](C)[C@H](O)[C@@]1(C)O` ?
16.1

Any idea what IC50 was measured for `CC[C@@H]1OC(=O)[C@@H](C)[C@H](O[C@H]2C[C@@](C)(OC)[C@@H](O)[C@H](C)O2)[C@@H](C)[C@H](O[C@H]2O[C@@H](C)C[C@@H](N(C)C)[C@@H]2O)[C@](C)(O)C[C@H](C)CN(Cc2ccc(-c3cn(CCCCC(=O)NO)nn3)cc2)[C@H](C)[C@H](O)[C@@]1(C)O` ?
2550
